# assay.summary: chemical genetic growth profiling, strain panel (AID 1159580);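 note: tested at 20 µM; growth read once vehicle control cultures reached saturation at 30 °C; 1 = growth at the plate median or of vehicle wells; lower values mean less growth of the strain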
# measurement.parameters: S. cerevisiae deletion strains, growth OD, locus YHR142W, strain chs7
Hit rate of the full screen: of about 5,500 compounds, about 2,000 (36%) were called active. About 18% were inconclusive and are not listed. Cut-off read from the data, not from the text of the source: active = normalized growth mostly below about 0.91 (no sharp cut-off); inconclusive = no clear call, values can overlap the other calls; inactive = mostly above about 0.92. The list shows a part of the results.
Classes used: active, inactive

compound	assigned.class
O=C1c2ccccc2C(=O)c2ccccc21	inactive
O=C(CCc1ccc(O)cc1)c1c(O)cc(O)cc1O	inactive
CC(=O)OC1CCC23CC1(C)CCC2C(C)(C)CC3OC(C)=O (centres undefined)	inactive
CCC[C@@H]1C[C@@H](C(=O)N[C@H]([C@H]2O[C@H](SC)[C@H](O)[C@@H](O)[C@H]2O)[C@H](C)O)N(C)C1	inactive
Cc1cc(O)c2c(c1)C(=O)c1cccc(O)c1C2=O	inactive
COCC1=C(C(=O)OC(C)OC(=O)OC(C)C)N2C(=O)[C@@H](NC(=O)/C(=N\OC)c3csc(N)n3)[C@H]2SC1 (some centres undefined)	inactive
CC(=O)OC[C@@]1(O)C[C@@]23CCC4c5ccoc5CC[C@]4(C)C2CC[C@@H]1C3 (some centres undefined)	active
CC(=O)CCCCn1c(=O)c2c(ncn2C)n(C)c1=O	inactive
C[C@H]1C(=O)CCC2[C@]3(C)CC[C@@]4(C)C5CC(C)(C)CC[C@]5(C)CC[C@]4(C)C3CC[C@@]21C (some centres undefined)	inactive
COc1ccc(CC(=O)c2ccc(O)cc2O)cc1	inactive
CC(=CC1CCC(C)C2CCC(C)=C12)C(=O)O (centres undefined)	inactive
CC(C)[C@@H]1CC[C@@H](C)CC1=O	inactive
COc1cc(O)ccc1C(C)=O	inactive
CC(=O)OCC1=C(C(=O)O)N2C(=O)[C@@H](NC(=O)CSc3ccncc3)[C@H]2SC1	inactive
CNC(C)[C@@H]1CC[C@@H](N)[C@@H](OC2[C@@H](N)C[C@@H](N)[C@H](OC3OC[C@](C)(O)[C@H](NC)[C@H]3O)[C@H]2O)O1 (some centres undefined)	inactive
CC(C)[C@@H]1CC[C@@H](C)C[C@H]1OC(=O)c1ccccc1	inactive
CC(=O)Oc1c(C)c(C)c2c(c1C)CCC(C)(CCCC(C)CCCC(C)CCCC(C)C)O2 (centres undefined)	inactive
Cn1c(=O)c2c(ncn2C)n(C)c1=O	inactive
O=C(O)CC[N+](=O)[O-]	inactive
CC(=O)O[C@@H]1C2CC[C@@H]3C1(C[C@@H](O)[C@@]1(O)[C@@H](C[C@H](O)C1(C)C)[C@]3(C)O)C[C@@]2(C)O (some centres undefined)	inactive
CC(=O)NC1C(O)OC(COS(=O)(=O)O)C(OC2OC(C(=O)O)C(OC3OC(CO)C(OC4OC(C(=O)O)C(O)C(O)C4OS(=O)(=O)O)C(OS(=O)(=O)O)C3NS(=O)(=O)O)C(O)C2OS(=O)(=O)O)C1O (centres undefined)	inactive
Cn1c(=O)[nH]c2ncn(C)c2c1=O	inactive
COc1ccccc1OCC(O)COC(N)=O (centres undefined)	inactive
CCCCCC/C=C\CCCCCCCc1cccc(O)c1C(=O)O	inactive
CC(=O)OC1CCC2(O)CC1(C)CCC1C2CC1(C)C (centres undefined)	inactive
CC12CCC(O)CC1CCc1ccccc12 (centres undefined)	inactive
CC12CCC(OC(=O)c3ccccc3)CC1CCc1ccccc12 (centres undefined)	inactive
Cn1c(=O)[nH]c2nc[nH]c2c1=O	inactive
COC(=O)C[C@H]1C(C)(C)[C@@H](OC(C)=O)[C@@H]2CC3=C4CC(=O)O[C@@H](c5ccoc5)[C@]4(C)CCC3[C@@]1(C)C2=O (some centres undefined)	inactive
CON	inactive
CC(=O)NS(=O)(=O)c1ccc(N)cc1	inactive
CC(=CC1CCC(C)C2C1=C(C)CC2O)C(=O)O (centres undefined)	inactive
COC1=CC23CCCN2CCc2cc4c(cc2C3C1O)OCO4 (centres undefined)	inactive
O=C1C=C(O)c2ccccc2C1=O	inactive
CC(C)N1C(=O)c2ccccc2NS1(=O)=O	inactive
Cn1c(=O)c2c(ncn2CCO)n(C)c1=O	inactive
CNC(C)(C)Cc1ccccc1	inactive
CC1(C)CC23C(=O)CCC(O)C2(C)CCC13 (centres undefined)	inactive
Cn1cnc2c1c(=O)[nH]c(=O)n2C	inactive
CCC1(C2=NCCN2)Cc2ccccc2O1 (centres undefined)	inactive
O=C(O)C1=C(CSc2nnnn2CS(=O)(=O)O)CS[C@@H]2C(NC(=O)[C@H](O)c3ccccc3)C(=O)N12 (some centres undefined)	inactive
CC(=O)O[C@H]1CC2CCC3C(CC[C@@]4(C)C3C[C@H]([N+]3(C)CCCCC3)[C@@H]4OC(C)=O)[C@@]2(C)C[C@@H]1N1CCCCC1 (some centres undefined)	inactive
COc1ccc(-c2c(O)c3c(OC)c4c(cc3oc2=O)OC(C)(C)C=C4)cc1	inactive
CC(=O)c1ccc[nH]1	inactive

====

# assay.summary: chemical genetic growth profiling, strain panel (AID 1159580);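 note: tested at 20 µM; growth read once vehicle control cultures reached saturation at 30 °C; 1 = growth at the plate median or of vehicle wells; lower values mean less growth of the strain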
# measurement.parameters: S. cerevisiae deletion strains, growth OD, locus YDL035C, strain GPR1
About 2,000 (36%) of roughly 5,500 compounds were called active. Not shown: some 18% with an inconclusive outcome. Rule as the data show it: active = normalized growth mostly below about 0.91 (no sharp cut-off); inconclusive = no clear call, values can overlap the other calls; inactive = mostly above about 0.92. The list shows a part of the results.
Classes used: yes (1) (active), no (0) (inactive)

compound	assigned.class
O=C(Nc1ccc([N+](=O)[O-])cc1Cl)c1cc(Cl)ccc1O	yes (1)
COc1cc2c(cc1OC)C(C)NCC2 (stereo not given)	no (0)
CC(=O)O[C@@H]1C2CC[C@@H]3C1(C[C@@H](O)[C@@]1(O)[C@@H](C[C@H](O)C1(C)C)[C@]3(C)O)C[C@@]2(C)O (stereo not given in full)	no (0)
CC(=O)Oc1c(C)c(C)c2c(c1C)CCC(C)(CCCC(C)CCCC(C)CCCC(C)C)O2 (stereo not given)	no (0)
CC1(C)CC23C(=O)CCC(O)C2(C)CCC13 (stereo not given)	no (0)

====

# assay.summary: chemical genetic growth profiling, strain panel (AID 1159580);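 note: tested at 20 µM; growth read once vehicle control cultures reached saturation at 30 °C; 1 = growth at the plate median or of vehicle wells; lower values mean less growth of the strain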
# measurement.parameters: S. cerevisiae deletion strains, growth OD, locus YPR111W, strain DBF20
The campaign covered roughly 5,500 compounds. About 2,000 (36%) were called active. Inconclusive results (about 18%) are left out. No stated cut-off is given here; in the data, active means normalized growth mostly below about 0.91 (no sharp cut-off); inconclusive means no clear call, values can overlap the other calls; inactive means mostly above about 0.92. Some of the results follow.
Classes used: active, inactive

compound	assigned.class
O=C(OCCNc1ccc([N+](=O)[O-])cn1)c1ccc([N+](=O)[O-])o1	inactive
CC(C)OC(=O)Nc1cc(Cl)cc(Cl)c1	inactive
O=C1c2ccccc2C(=O)c2sccc21	active
COc1ccc(OC)c2nc3c(nc12)C(=O)c1ccccc1-3	inactive
COc1cc(C2CC(=S)Nc3ccccc3S2)cc(OC)c1OC (stereo unspecified)	inactive
O=S(=O)(Nc1cc(C(F)(F)F)cc(C(F)(F)F)c1)c1ccc(Cl)s1	inactive
COC(=O)c1cc([N+](=O)[O-])ccc1S(=O)(=O)Cc1ccc(Cl)cc1	inactive
COC(=O)c1cc(I)c(OC(C)=O)c(I)c1	inactive
S=C(NCCc1csc2ccccc12)Nc1ccc(Cl)cc1	inactive
CC(C)(C)c1ccc(-c2cc(NC(=O)c3ccc(Cl)cc3)n[nH]2)cc1	inactive
Cc1oc(C(C)(C)C)cc1-c1cc(NC(=O)c2ccccc2)n[nH]1	inactive

====

# assay.summary: chemical genetic growth profiling, strain panel (AID 1159580);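 note: tested at 20 µM; growth read once vehicle control cultures reached saturation at 30 °C; 1 = growth at the plate median or of vehicle wells; lower values mean less growth of the strain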
# measurement.parameters: S. cerevisiae deletion strains, growth OD, locus YLR262C, strain YPT6 (second series)
Screen size: about 5,500 compounds; about 2,000 (36%) were called active. Inconclusive results (about 18%) are left out. Cut-off read from the data, not from the text of the source: active = normalized growth mostly below about 0.91 (no sharp cut-off); inconclusive = no clear call, values can overlap the other calls; inactive = mostly above about 0.92. This is one part of the list.
Classes used: label 1 = active, label 0 = inactive

molecule	assigned.class
COc1cc(O)ccc1C(C)=O	label 0
COc1ccccc1OCC(O)COC(N)=O (stereo not drawn)	label 0
O=C(O)c1cccnc1C(=O)O	label 0
CC1(C)CC23C(=O)CCC(O)C2(C)CCC13 (stereo not drawn)	label 0
COc1ccc(CC(=O)c2ccc(O)cc2O)cc1	label 1
COc1cc(OC)c2c(OC)c(-c3ccc4c(c3)OCO4)c(=O)oc2c1	label 1
O=C(O)[C@H]1/C(=C/CO)O[C@@H]2CC(=O)N21	label 0
Cc1cc(O)c2c(c1)C(=O)c1cccc(O)c1C2=O	label 1
O=C(CCc1ccc(O)cc1)c1c(O)cc(O)cc1O	label 0
CC(=O)Oc1c(C)c(C)c2c(c1C)CCC(C)(CCCC(C)CCCC(C)CCCC(C)C)O2 (stereo not drawn)	label 0
CC(C)c1cc2c(c(O)c1O)[C@@]1(C(=O)O)CCCC(C)(C)C1CC2 (stereo partly drawn)	label 1
O=C1C=CC(=O)c2ccccc21	label 1
O=C1c2cccc(O)c2C(=O)c2c(O)cccc21	label 1
CC(=O)O[C@@H]1C2CC[C@@H]3C1(C[C@@H](O)[C@@]1(O)[C@@H](C[C@H](O)C1(C)C)[C@]3(C)O)C[C@@]2(C)O (stereo partly drawn)	label 0
C[C@H]1C(=O)CCC2[C@]3(C)CC[C@@]4(C)C5CC(C)(C)CC[C@]5(C)CC[C@]4(C)C3CC[C@@]21C (stereo partly drawn)	label 0
CCCN(CCC)c1c([N+](=O)[O-])cc(C(F)(F)F)cc1[N+](=O)[O-]	label 0
O=C1C=C(O)c2ccccc2C1=O	label 1
O=C1C=CC(=O)c2c(O)cccc21	label 1
O=C(O)CC[N+](=O)[O-]	label 0
CC(=O)O[C@H]1CC2CCC3C(CC[C@@]4(C)C3C[C@H]([N+]3(C)CCCCC3)[C@@H]4OC(C)=O)[C@@]2(C)C[C@@H]1N1CCCCC1 (stereo partly drawn)	label 0
O=C1NS(=O)(=O)c2ccccc21	label 0
NC(=NCCCCCCN=C(N)N=C(N)Nc1ccc(Cl)cc1)N=C(N)Nc1ccc(Cl)cc1	label 1
CCC[C@@H]1C[C@@H](C(=O)N[C@H]([C@H]2O[C@H](SC)[C@H](O)[C@@H](O)[C@H]2O)[C@H](C)O)N(C)C1	label 0

Where do the numbers come from? From PubChem BioAssay AID1159580.
